- TESTED_TARGET: human ETA receptor (Homo sapiens)
- Construct: endogenously expressed human ETA receptors in SK-N-MC cells
- PROTOCOL: In vitro antagonistic effect against human ETA receptor, Ca2+ signal in SK-N-MC cells
- RECORDED_CONDITIONS: SK-N-MC cells, response to 1 nM endothelin-1
pIC50: −log10 of the molar value.

STRUCTURE_STRING	TESTED_TARGET	pIC50
O=S(=O)(NCC1CCOCC1)Nc1ncnc(OCCOc2ncc(Br)cn2)c1-c1ccc2c(c1)OCO2	human ETA receptor (Homo sapiens)	9.36
CCCNS(=O)(=O)Nc1ncnc(OCCOc2ncc(Br)cn2)c1-c1ccc2c(c1)CCO2	human ETA receptor (Homo sapiens)	8.80
CCCNS(=O)(=O)Nc1ncnc(OCCOc2ncc(Br)cn2)c1-c1ccc2c(c1)OCO2	human ETA receptor (Homo sapiens)	9.37
O=S(=O)(NCC1CCC1)Nc1ncnc(OCCOc2ncc(Br)cn2)c1-c1ccc2c(c1)OCO2	human ETA receptor (Homo sapiens)	9.46
O=S(=O)(NCC1CC1)Nc1ncnc(OCCOc2ncc(Br)cn2)c1-c1ccc2scnc2c1	human ETA receptor (Homo sapiens)	8.85
CCCOCCNS(=O)(=O)Nc1ncnc(OCCOc2ncc(Br)cn2)c1-c1ccc2scnc2c1	human ETA receptor (Homo sapiens)	8.89
COCCCNS(=O)(=O)Nc1ncnc(OCCOc2ncc(Br)cn2)c1-c1ccc2scnc2c1	human ETA receptor (Homo sapiens)	8.68
CCCCNS(=O)(=O)Nc1ncnc(OCCOc2ncc(Br)cn2)c1-c1ccc2ccnn2c1	human ETA receptor (Homo sapiens)	8.96
CCCOCCNS(=O)(=O)Nc1ncnc(OCCOc2ncc(Br)cn2)c1-c1ccc2c(c1)OCO2	human ETA receptor (Homo sapiens)	9.10
CCNS(=O)(=O)Nc1ncnc(OCCOc2ncc(Br)cn2)c1-c1ccc2c(c1)OCO2	human ETA receptor (Homo sapiens)	8.64

---

- TESTED_TARGET: human ETA receptor (Homo sapiens, UniProt P25101)
- Construct: endogenously expressed human ETA receptors in SK-N-MC cells
- Sequence (P25101 21-427): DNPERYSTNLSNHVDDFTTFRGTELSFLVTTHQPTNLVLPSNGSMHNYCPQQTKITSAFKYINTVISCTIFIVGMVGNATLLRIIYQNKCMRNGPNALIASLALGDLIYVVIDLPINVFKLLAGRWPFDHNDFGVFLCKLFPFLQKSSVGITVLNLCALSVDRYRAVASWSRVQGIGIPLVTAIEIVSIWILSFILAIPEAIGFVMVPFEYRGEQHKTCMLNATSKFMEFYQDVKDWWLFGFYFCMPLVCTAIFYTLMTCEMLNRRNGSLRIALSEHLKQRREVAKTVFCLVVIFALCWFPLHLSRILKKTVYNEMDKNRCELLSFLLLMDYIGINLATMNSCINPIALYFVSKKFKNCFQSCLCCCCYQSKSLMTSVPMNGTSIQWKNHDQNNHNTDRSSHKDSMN
- PROTOCOL: In vitro antagonistic effect against human ETA receptor, Ca2+ signal in SK-N-MC cells
- RECORDED_CONDITIONS: SK-N-MC cells, response to 1 nM endothelin-1
Binary label based on IC50 with cut-off 2 nM: below gives y, not below gives n.

COMPOUND	DISCRETE_LABEL
O=S(=O)(NCC1CC1)Nc1ncnc(OCCOc2ncc(Br)cn2)c1-c1ccc2ccnn2c1 [WX027]	n
CS(=O)(=O)CCNS(=O)(=O)Nc1ncnc(OCCOc2ncc(Br)cn2)c1-c1ccc2c(c1)OCO2 [WX022]	n
CCOCCNS(=O)(=O)Nc1ncnc(OCCOc2ncc(Br)cn2)c1-c1ccc2c(c1)OCO2 [WX015]	y
O=S(=O)(NCC1CCCO1)Nc1ncnc(OCCOc2ncc(Br)cn2)c1-c1ccc2c(c1)OCO2 (centres unmarked) [WX021]	y
NS(=O)(=O)Nc1ncnc(OCCOc2ncc(Br)cn2)c1-c1ccc2c(c1)OCO2 [WX001]	n
CCNS(=O)(=O)Nc1ncnc(OCCOc2ncc(Br)cn2)c1-c1ccc2scnc2c1 [WX002]	n
COCCNS(=O)(=O)Nc1ncnc(OCCOc2ncc(Br)cn2)c1-c1ccc2c(c1)CCO2 [WX034]	n

---

- TESTED_TARGET: bile salt transport pump (BSEP) (Homo sapiens, UniProt O95342)
- Construct: own knowledge)
- Sequence (O95342 whole entry): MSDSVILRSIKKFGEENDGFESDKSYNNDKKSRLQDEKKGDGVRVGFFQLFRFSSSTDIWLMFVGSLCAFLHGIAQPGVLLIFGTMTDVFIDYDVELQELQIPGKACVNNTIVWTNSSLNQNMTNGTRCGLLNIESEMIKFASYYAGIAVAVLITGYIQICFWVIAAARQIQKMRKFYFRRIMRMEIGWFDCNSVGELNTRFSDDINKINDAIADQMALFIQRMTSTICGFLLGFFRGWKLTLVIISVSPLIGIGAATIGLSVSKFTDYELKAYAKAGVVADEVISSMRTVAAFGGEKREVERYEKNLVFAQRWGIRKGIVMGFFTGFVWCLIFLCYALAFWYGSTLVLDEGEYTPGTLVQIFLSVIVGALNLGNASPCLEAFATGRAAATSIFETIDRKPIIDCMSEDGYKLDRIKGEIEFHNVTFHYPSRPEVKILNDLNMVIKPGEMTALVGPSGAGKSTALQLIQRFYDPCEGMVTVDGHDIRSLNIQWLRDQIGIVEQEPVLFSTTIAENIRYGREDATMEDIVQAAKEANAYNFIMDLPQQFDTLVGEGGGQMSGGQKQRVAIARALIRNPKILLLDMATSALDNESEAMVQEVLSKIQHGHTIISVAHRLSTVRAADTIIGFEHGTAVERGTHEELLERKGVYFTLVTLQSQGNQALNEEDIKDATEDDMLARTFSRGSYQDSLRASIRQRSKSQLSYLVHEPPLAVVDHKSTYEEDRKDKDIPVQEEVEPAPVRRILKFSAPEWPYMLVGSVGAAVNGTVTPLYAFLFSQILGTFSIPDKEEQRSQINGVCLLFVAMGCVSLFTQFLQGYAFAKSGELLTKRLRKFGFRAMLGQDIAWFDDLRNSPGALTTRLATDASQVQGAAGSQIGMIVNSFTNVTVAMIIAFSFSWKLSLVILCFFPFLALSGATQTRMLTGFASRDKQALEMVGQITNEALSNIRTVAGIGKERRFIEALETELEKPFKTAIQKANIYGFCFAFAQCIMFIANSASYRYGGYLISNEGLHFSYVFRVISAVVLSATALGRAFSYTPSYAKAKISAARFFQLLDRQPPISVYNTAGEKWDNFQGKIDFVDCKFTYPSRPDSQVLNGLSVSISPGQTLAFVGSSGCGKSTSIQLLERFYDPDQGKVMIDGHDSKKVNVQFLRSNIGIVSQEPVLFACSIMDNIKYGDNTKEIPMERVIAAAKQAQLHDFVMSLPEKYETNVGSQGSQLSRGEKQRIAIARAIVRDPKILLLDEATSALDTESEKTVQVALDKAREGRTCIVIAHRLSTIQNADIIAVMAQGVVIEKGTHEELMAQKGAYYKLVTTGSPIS
- PROTOCOL: Inhibition test on bile salt transfer pump (BSEP), taurocholic acid uptake in BSEP-Hi5-VT vesicles
- RECORDED_CONDITIONS: substrate taurocholic acid; read-out: IC50, inhibitory effect on the bile salt transport pump (BSEP)
pIC50: −log10 of the molar value.
# maps each entry to its pIC50

COMPOUND	pIC50
COCCNS(=O)(=O)Nc1ncnc(OCCOc2ncc(Br)cn2)c1-c1ccc2c(c1)OCO2	4.36
CCCNS(=O)(=O)Nc1ncnc(OCCOc2ncc(Br)cn2)c1-c1ccc(Br)cc1 [macitentan, reference compound]	6.55
